Reference for the values: the supplement of paper PMC9170038

The entries below are paired with their reported apparent KD of MS2 coat protein.
Test system: MS2 coat protein
Assay: apparent KD of MS2 coat protein; higher = weaker reporter binding
Conditions: Eterna round: R107; input ligand: arginine 13.2 mM
Dear colleague, please send the value followed by its unit.

Reference set (2 entries):
[[record]]
sequence_data = "GGAUAGGACAGAAGGAGCGACAUGAGGAUCACCCAUGUCUACCACGUCGAAAGACGCUCAUGUCAGGUAGGUCGCUGUCCUAUCG [ArgXB 9 #StaticStem #MS2LeftOffAptamer]"
result = "101 nM"

[[record]]
sequence_data = "UAAUAGAUUACGGCCGCCACUGAAGUGGACUUUAUGAGCAGGAUUCACAUGAGGAUCACCCAUGUCAGGACCGGGUACGUCCAUA [theeternabot_exclusion_MS2_Trp_B_33]"
result = "25.6 nM"


// switching to the query sequence
Which measured apparent KD of MS2 coat protein value corresponds to AUACAUGAGGAUCACCCAUGUCCUCGUGAUCGAGGACCGGUACGGCCGCCACUCGGUCCUCGCGAGGAGGAGUCAAAGACUCCAA [Omei Trp A SS A v4] ? 38.5 nM

----------
The entries below are paired with their reported apparent KD of K4 kissing-loop reporter.
Tested on: K4 kissing-loop RNA reporter;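 note: bound reporter read as fluorescence of individual clusters on recovered sequencing chips by microscopy, with normalized cluster intensities fitted with a binding model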
Assay: apparent KD of K4 kissing-loop reporter; higher = weaker reporter binding
Settings: Eterna round: R107; input ligand: arginine 13.2 mM
Expressed in µM, but write only the number.

[[record]]
sequence_data = "AAACAUCACUGGGAGUGAUGUUCUCAGUGACGAGGACCGGUACGGCCGCCACUCGCGAGAGAUAUAAAUAAGUAAUGACAUCAUU [Excl Tryptophan A V1]"
quantitative_readout = 0.334


Which measured apparent KD of K4 kissing-loop reporter value corresponds to CGGAUGUAGUGAUGUUAUAUUAGAUGUAGACGAGGACCGGUACGGCCGCCACUCGUAACGGCUGCUAGCGCGUUGCGAGGUGUGC [ExTryptoA.Cl] ? 0.611

Which measured apparent KD of K4 kissing-loop reporter value corresponds to AAUUUAUUAACUGAUACCAGACUUUAGCGUGUUUAUAAGUCAAGUGAUGUUUGACUAUUAGUCCCUUGGCAGCAGUAUUUAUUAA [JR_SSTheophyB_Sub022] ? 0.131

Which measured apparent KD of K4 kissing-loop reporter value corresponds to UGUCAUUGGUCGGCCGCCACUAGAAGGUCAAAGACCAUGGAGUGAUGUUCUAAGACGAAAGUCACUAGGACCGGGACCGAUGACU [TrypBS 5 #SwitchBubble #K4Middle] ? 0.689

----------
Tested on: MS2 coat protein
Test: apparent KD of MS2 coat protein; designed switch direction (-1 OFF switch, 1 ON switch): -1; higher = weaker reporter binding
Settings: input ligand: FMN 200 uM
readout label: apparent KD of MS2 coat protein
Dear colleague, please send the value followed by its unit.

Reference set (5 entries):
[[record]]
sequence_data = "ACAUCACAGCUAGGAUAUAGAUGACAUGAGGAUCACCCAUGUUAUCCCAUGUUGACGAAAACCGACUAGAAGGAGCUACAGAUG [Ex NG2 #6] (Eterna round: R96, puzzle: Exclusion NG 2)"
readout_label = "apparent KD of MS2 coat protein"
result = "101 nM"

[[record]]
sequence_data = "GAGGCAUGCUGAGGUCCACACAUGAGGAUCACCCAUGUAAUGACAAGCUUUUUCCUCGUCUUAUCGCUAUCGCGUUC [Dilaenla] (Eterna round: R96, puzzle: Sensor v3, turn-off variant 1)"
readout_label = "apparent KD of MS2 coat protein"
result = "13.1 nM"

[[record]]
sequence_data = "AUUCAACAUGAGGAUCACCCAUGUGAGGAUAUGCGAGUGUAGACUUCGGUUUGAUAGAGCAGAAGGCGCAGGUA [EX1 #12] (Eterna round: R97, puzzle: Exclusion 1)"
readout_label = "apparent KD of MS2 coat protein"
result = "35.9 nM"

[[record]]
sequence_data = "UUCACAUGGACAUGAGAUCACAUGAGGAUCACCCAUGUGAAUAACAAGCUUUUUGUUCGUCUUAUGUCCAAUAAUAA [Stov1/14-D1] (Eterna round: R97, puzzle: Sensor, turn-off variant 1)"
readout_label = "apparent KD of MS2 coat protein"
result = "14.1 nM"

[[record]]
sequence_data = "UUCGUGCAGCUUUGCUGUACGCGUACAUGAGGAUCACCCAUGUAGGAUAUGGUACGCUUUGCGUGCUAGAAGGAUAUGGAGAGG [JL EXNG3 1.34] (Eterna round: R96, puzzle: Exclusion NG 3)"
readout_label = "apparent KD of MS2 coat protein"
result = "62.9 nM"


Which measured apparent KD of MS2 coat protein value corresponds to AACAGGUCAGGAUAUACAUGAGGAUCACCCAUGUAGACUUCUGGUCUACCGAGACCGUGUAGAAGGGACCUGAA [Exclusion 3 (MOD3 of #98 Marzena11)] (Eterna round: R97, puzzle: Exclusion 3) ? 104 nM

Which measured apparent KD of MS2 coat protein value corresponds to GUCAGCUCGUGAGGAUAUGAACAUGAGGAUCACCCAUGUAAGAUCAAGCUGCUUCGGCAGCAAGUUCAGAAGGCACGAGCUGAC [ENG2/10-A1] (Eterna round: R96, puzzle: Exclusion NG 2) ? 221 nM

Which measured apparent KD of MS2 coat protein value corresponds to GGGCCCGGAGGAUAUACAAUUUUGGGCCGAAAGGCCCGGGUACAUGAGGAUCACCCAUGUAGAAGGCCGGGCCC [-41.7, -39.1 kcal A 24%, 5a,0] (Eterna round: R97, puzzle: Exclusion 2) ? 134 nM

Which measured apparent KD of MS2 coat protein value corresponds to CCUCUACAUGAGGAUCACCCAUGUGAGGAUAUAAGAUUGCGAAUUCCGCACUACGGUCUUAGAAGGCGCGUGGA [Riarve] (Eterna round: R96, puzzle: Exclusion 1) ? 31.3 nM

Which measured apparent KD of MS2 coat protein value corresponds to CAACCGAAUCAGUGAAUGCCGACAUGAGGAUCACCCAUGUGUGAGGAUAUUUUAGUAGAGAACUAAAAGAAGGCACCUGGAAAG [Eternabot solution 20] (Eterna round: R96, puzzle: Exclusion NG 3) ? 70.2 nM

Which measured apparent KD of MS2 coat protein value corresponds to UCAGGCAAGUGUACAGCCAACAUGAGGAUCACCCAUGUCGGGAGAAGGACUGUUACACACCGCUCGUCUUACUUGCC [Eternabot (Original) Solution 35] (Eterna round: R97, puzzle: Sensor, turn-off variant 1) ? 18.3 nM
